Test system: MM1S cells
Assay: Cell growth inhibition, CellTiter-Glo, 72 h
Type: cell-based
Settings: Homo sapiens, MM1.S, 72 h culture, mean of N=2
pIC50: −log10 of the molar value.
I would appreciate it if you labelled entries criterion met when pIC50 is 9 or higher, otherwise criterion not met.

Recorded results for 3 compounds are shown here.
COMPOUND | ASSIGNED_CATEGORY
CC(=O)N1Cc2cc(C3CCN(CCN4CCN(c5ccc6c(c5)CN(C5CCC(=O)NC5=O)C6=O)CC4)CC3)cc(N3CCCc4cc(-c5cnn(C)c5)c(C(F)F)cc43)c2C1 (stereo not drawn) | criterion met
C=CS(=O)(=O)N[C@H]1CC[C@H](c2cc3c(c(N4CCCc5cc(-c6cnn(C)c6)c(C(F)F)cc54)c2)CN(C(C)=O)C3)CC1 | criterion not met
C=CS(=O)(=O)N[C@H]1CC[C@@H](n2nc(N3CCCc4cc(-c5cnn(C)c5)c(C(F)F)cc43)c3c2CCN(C(C)=O)C3)CC1 | criterion not met

Challenge: Item `C=CS(=O)(=O)N[C@H]1CC[C@H](c2cc3c(c(N4CCCc5cc(-c6cnn(C)c6)c(C(F)F)cc54)c2)CN(C(=O)NC)CC3)CC1` with pIC50 of 9 or above?
Response given: criterion not met

Challenge: Item `C=CS(=O)(=O)N[C@H]1CC[C@@H](n2nc(N3CCCc4cc(-c5cnn(C)c5)c(C(F)F)cc43)c3c2CCN(C(=O)NC)C3)CC1` with pIC50 of 9 or above?
Response given: criterion not met

###

Let's look at some compounds and their measured pIC50.
Tested on: MM1S cells
Test: Cell growth inhibition, CellTiter-Glo, 72 h
Format: cell-based
Conditions: Homo sapiens, MM1.S, 72 h culture, mean of N=2
In plain terms, pIC50 is the concentration in mol/L turned into minus its base-10 logarithm.

COMPOUND | pIC50
CC(=O)N1Cc2cc([C@H]3CC[C@@H](NC(=O)/C=C/CN(C)C)CC3)cc(N3CCCc4cc(-c5cnn(C)c5)c(C(F)F)cc43)c2C1 [Compound 1358] | 6.22

Challenge: # query: pIC50 of entry C=CS(=O)(=O)N1CCC(c2cc3c(c(N4CCCc5cc(-c6cnn(C)c6)c(C(F)F)cc54)c2)CN(C(=O)NC)CC3)CC1 [Compound 1347]
Response given: 7.59

Challenge: # query: pIC50 of entry CNC(=O)N1CCc2c(c(N3CCCc4cc(-c5cnn(C)c5)c(C(F)F)cc43)nn2[C@H]2CC[C@H](N3C(=O)C=CC3=O)CC2)C1 [Compound 1383]
Response given: 6.91

###

Test system: MM1S cells
Experiment: Cell growth inhibition, CellTiter-Glo, 72 h
Format: cell-based
Details: Homo sapiens, MM1.S, 72 h culture, mean of N=2
MEASUREMENT_TYPE: pIC50
In plain terms, pIC50 is the concentration in mol/L turned into minus its base-10 logarithm.

MOLECULE | pIC50
C=CS(=O)(=O)N1CCC(n2c([C@@H]3CCCC(=O)N3c3ccc(F)c(F)c3)nc3cc(-c4c(C)noc4C)ccc32)CC1 | 7.36
C=CS(=O)(=O)N1CCC(n2nc(N3CCCc4cc(-c5cnn(C)c5)c(C5CC5)cc43)c3c2CCN(C(=O)NC)C3)CC1 | 8.52

Challenge: # query: pIC50 of entry CC(=O)N1Cc2cc(C3CCN(CCC4CCN(c5ccc6c(c5)CN(C5CCC(=O)NC5=O)C6=O)CC4)CC3)cc(N3CCCc4cc(-c5cnn(C)c5)c(C(F)F)cc43)c2C1 (stereo not shown)
Response given: 9.44

Challenge: # query: pIC50 of entry `C=CS(=O)(=O)N[C@H]1CC[C@H](n2nc(N3CCCc4cc(-c5cnn(C)c5)c(C(F)F)cc43)c3c2CCN(C(=O)NC)C3)CC1`
Response given: 9.00
